B1: CPEB3 Ribozyme (parent)
chain: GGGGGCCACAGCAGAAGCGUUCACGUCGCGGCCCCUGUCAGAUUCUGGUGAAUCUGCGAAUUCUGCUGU

# Variants of: B1
# experiment-description: self-cleavage, relative activity (ratio to wild type); higher = more cleavage; co-transcriptional

| sequence-content | self-cleavage |
| --- | --- |
| GGGGGCCACAGCAGAAGCGUUCACGUCGCGGCCCCCGUCAGAUUCUGGUGAAUCUGCGAAUUGUGCUGU [U36C C63G] | 0.548 |
| GGGGUCCACAGCAGAAGCGUUGACGUCGCGGCCCCUGUCAGAUUCUGGUGAAUCUGCGAAUUCUGCUGU [G5U C22G] | 0.09 |
| GGGGGCCACAGCAGAAGCGUUCACGUCGCGGCCCCUGUCAGAUUCUGGUGAAGCUGCGAAUCCUGCUGU [U53G U62C] | 0.619 |
| GGGGGCCACAGCAGAAGCGUUCACGUCGCGGCCUCCGUCAGAUUCUGGUGAAUCUGCGAAUUCUGCUGU [C34U U36C] | 0.922 |
| GGCGGCCACAGCAGAAGCGUUCACGUCGCGGCCCCUGUCAGAUUCUGGUGAAUCUGGGAAUUCUGCUGU [G3C C57G] | 0.0873 |
| GGGGGCCACAGCAGAAGCGUUCACGACGCAGCCCCUGUCAGAUUCUGGUGAAUCUGCGAAUUCUGCUGU [U26A G30A] | 0.36 |
| GGGGGCCACAGCUGAAGCGUCCACGUCGCGGCCCCUGUCAGAUUCUGGUGAAUCUGCGAAUUCUGCUGU [A13U U21C] | 0.691 |
| GGGGGCGACAGCAGAAGCGUUCACGUCGCGGCCCCUGUCGGAUUCUGGUGAAUCUGCGAAUUCUGCUGU [C7G A40G] | 0.376 |
| GGGGGCCACAGCAGAAGCCUUCACGUCGCGGCGCCUGUCAGAUUCUGGUGAAUCUGCGAAUUCUGCUGU [G19C C33G] | 0.142 |
| GGGGGCCACAGCAGAAGCGUUCACGUCGCGGCCCCUGUCAGCUUCUGGUGAAUCUGCGAAUUCUGGUGU [A42C C66G] | 0.661 |
| GGGGGCCACAGCAGAAGCGUUCACGUCGCGGCCCCUGUCAGACUCUGGUGAUUCUGCGAAUUCUGCUGU [U43C A52U] | 1 |
| GGGGGCCACAGCAGAAGCGUUCACGUCGCGGCACAUGUCAGAUUCUGGUGAAUCUGCGAAUUCUGCUGU [C33A C35A] | 0.151 |
| GGGGGCCACAGCAGAAGCGUUCACGUCGCGGCCCCUGUCAGAUUCUGGUGAAUCUGCGAAUUCUCCUGA [G65C U69A] | 0.828 |
| GGGGGCUACAGCAGAAGCGUUCACGUCGCGGCCCCUGUCAGAUUCUGGUGAAUCUGCGAAUUCUGCUGU [C7U] | 0.968 |
| GGGGGCCACAGCAGAAGCGUUCAAGUCGCGGCCCCUGUCAUAUUCUGGUGAAUCUGCGAAUUCUGCUGU [C24A G41U] | 0.456 |
| GGGGGCCACAGCAGAAGCGUUCACGUCGCGGCCCCUGUCAGAUUCUGUAGAAUCUGCGAAUUCUGCUGU [G48U U49A] | 1.02 |
| GGGGGCCACAGCAGAAGCGGUCACGUCGCGGACCCUGUCAGAUUCUGGUGAAUCUGCGAAUUCUGCUGU [U20G C32A] | 0.218 |
| GGGGGCCACAGCAGAAGCGUUCACGUCGCGGCCCCUGUCAGAUUCUGGUGAAGCUGCGACUUCUGCUGU [U53G A60C] | 0.308 |
| GGGGGCCACAGCAGAAGCGUUCACGUCGCGGCCCCAGUCAGAUUCUUGUGAAUCUGCGAAUUCUGCUGU [U36A G47U] | 0.321 |
| GGGGGCCACAUCAGAAGCGUUUACGUCGCGGCCCCUGUCAGAUUCUGGUGAAUCUGCGAAUUCUGCUGU [G11U C22U] | 0.179 |
| GGGGGCCACAGCAGAAGCGUUGACGUCGCGGCCCCUGGCAGAUUCUGGUGAAUCUGCGAAUUCUGCUGU [C22G U38G] | 0.177 |
| GGGGGCCACAGCAGAAGCGUUCAUGUCGCGGCCCCUGUCAGAUUCUGGUGAAUCUCCGAAUUCUGCUGU [C24U G56C] | 0.307 |

Every entry's value here was drawn from the RNAGym collection of RNA variant scans (doi:10.7554/elife.80360).
